Entries annotated with measured self-splicing fitness (ln)
- test_summary: self-splicing fitness, log relative to wild type (ln ratio); higher = more splicing; Tetrahymena group I intron in knt gene, E. coli kanamycin selection, DiMSum; sequences stand for … in CUCUCU…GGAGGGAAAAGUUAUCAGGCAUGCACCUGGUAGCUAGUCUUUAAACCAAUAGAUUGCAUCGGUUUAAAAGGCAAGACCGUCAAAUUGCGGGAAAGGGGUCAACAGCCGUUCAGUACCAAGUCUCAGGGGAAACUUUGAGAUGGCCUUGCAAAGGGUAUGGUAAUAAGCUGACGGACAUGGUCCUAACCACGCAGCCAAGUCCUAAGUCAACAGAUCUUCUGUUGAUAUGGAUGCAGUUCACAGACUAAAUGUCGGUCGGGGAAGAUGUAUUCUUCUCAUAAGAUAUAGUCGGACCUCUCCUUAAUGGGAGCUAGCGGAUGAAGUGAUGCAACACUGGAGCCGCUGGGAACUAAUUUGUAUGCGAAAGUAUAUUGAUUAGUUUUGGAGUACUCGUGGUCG;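 note: selection with 25 µg/mL kanamycin versus none on LB agar overnight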
- test_parameters: 30 °C
Just the number, please.

Solved entries:
Asked: What measured self-splicing fitness (ln) goes with "UCACAGCAAUAUUACGCCGG" ?
Given back: -0.748

Asked: Entry "CACCAGCAAUAUUACGUGAC" please
Given back: -4.86

Asked: Entry "CACCAGCAAUAUUACGAGCC" please
Given back: -3.37

Asked: Entry "CCGAAGCAAUAUUACGAUUU" please
Given back: -1.44

Asked: Entry "GCUAAGCAAUAUUACGGACG" please
Given back: -0.941

Asked: Entry "CUCUAGCAAUAUUACGUCGA" please
Given back: -4.25

Asked: Entry "CUCCAGCAAUAUUACGAAUG" please
Given back: -1.39

Asked: Entry "CGUUAGCAAUAUUACGGACA" please
Given back: -0.317

New cases:
Asked: What measured self-splicing fitness (ln) goes with "UCAGAGCAAUAUUACGCGUU" ?
Given back: -4.72

Asked: Entry "AACAAGCAAUAUUACGGCCU" please
Given back: 0.0767

Asked: Entry "CAAGAGCAAUAUUACGUAGA" please
Given back: -3.55

Asked: Entry "AUCGAGCAAUAUUACGGCCA" please
Given back: -1.35
